# target.system: Angiotensin II receptor (Rattus norvegicus) (UniProt P29089+P25095+P35351)
# test.description: Inhibitory activity on AII (100 ng/kg iv)-induced pressor response after administration at 0.1 mg/kg po in conscious male Sprague-Dawley rats at 7 h.
# Type: functional, organism-based
# Set-up: dose 0.1 mg/kg
Heads up, the class ranges for inhibition are bin 0 (below 50%), bin 1 (50% to below 80%), bin 2 (80% or more)

- molecule: "CCCCc1nc2cccc(C(=O)O)c2n1Cc1ccc(-c2ccccc2-c2nnn(C)n2)cc1"
  answer.label: "bin 0"
- molecule: "CCOc1nc2cccc(C(=O)OCOC(=O)C3CCCC3)c2n1Cc1ccc(-c2ccccc2-c2nn[nH]n2)cc1"
  answer.label: "bin 1"
- molecule: "CCOc1nc2cccc(C(=O)OC(C)OC(=O)OC3CCC3)c2n1Cc1ccc(-c2ccccc2-c2nn[nH]n2)cc1 (stereo not drawn)"
  answer.label: "bin 1"
- molecule: "CCOc1nc2cccc(C(=O)OCOC(=O)C(C)C)c2n1Cc1ccc(-c2ccccc2-c2nn[nH]n2)cc1"
  answer.label: "bin 0"
- molecule: "CCCCc1nc(Cl)c(CO)n1Cc1ccc(-c2ccccc2-c2nnn[nH]2)cc1"
  answer.label: "bin 0"
- molecule: "CCCCc1nc2cccc(C(=O)OCc3oc(=O)oc3C)c2n1Cc1ccc(-c2ccccc2-c2nnn(Cc3oc(=O)oc3C)n2)cc1.CCCCc1nc2cccc(C(=O)OCc3oc(=O)oc3C)c2n1Cc1ccc(-c2ccccc2-c2nnnn2Cc2oc(=O)oc2C)cc1"
  answer.label: "bin 0"
- molecule: "CCCCc1nc2cccc(C(=O)OCCN3CCOCC3)c2n1Cc1ccc(-c2ccccc2-c2nn[nH]n2)cc1"
  answer.label: "bin 2"
- molecule: "CCOc1nc2cccc(C(=O)OCOC(=O)OCC3CC3)c2n1Cc1ccc(-c2ccccc2-c2nn[nH]n2)cc1"
  answer.label: "bin 0"
- molecule: "CCCCOC(=O)c1cccc2nc(CCCC)n(Cc3ccc(-c4ccccc4-c4nn[nH]n4)cc3)c12"
  answer.label: "bin 2"
- molecule: "CCCCc1nc2cccc(C(=O)OC(C)OC(=O)OCC)c2n1Cc1ccc(-c2ccccc2-c2nn[nH]n2)cc1 (stereo not drawn)"
  answer.label: "bin 1"
- molecule: "CCCCc1nc2cccc(C(=O)OCOC(=O)C(C)(C)C)c2n1Cc1ccc(-c2ccccc2-c2nn[nH]n2)cc1"
  answer.label: "bin 2"
- molecule: "CCCCc1nc2cccc(C(=O)OCc3oc(=O)oc3C)c2n1Cc1ccc(-c2ccccc2-c2nn[nH]n2)cc1"
  answer.label: "bin 1"

====

# target.system: Angiotensin II receptor (Rattus norvegicus) (UniProt P29089+P25095+P35351)
# test.description: Inhibitory effect on AII (100 ng/kg iv)-induced pressor response after administration at 0.1 mg/kg po in conscious male Sprague-Dawley rats at 0.5 h.
# Type: functional, organism-based
# Parameters: dose 0.1 mg/kg
Decision: inhibition >= 40% yields satisfied, all other cases yield not satisfied.

- molecule: "CCOc1nc2cccc(C(=O)OCOC(=O)OCC3CC3)c2n1Cc1ccc(-c2ccccc2-c2nn[nH]n2)cc1"
  answer.label: "not satisfied"
- molecule: "CCCCc1nc2cccc(C(=O)O)c2n1Cc1ccc(-c2ccccc2-c2nnn(COC(=O)C(C)(C)C)n2)cc1.CCCCc1nc2cccc(C(=O)O)c2n1Cc1ccc(-c2ccccc2-c2nnnn2COC(=O)C(C)(C)C)cc1"
  answer.label: "not satisfied"
- molecule: "CCOc1nc2cccc(C(=O)OCOC(=O)/C=C/c3ccccc3)c2n1Cc1ccc(-c2ccccc2-c2nn[nH]n2)cc1"
  answer.label: "not satisfied"
- molecule: "CCCCc1nc2cccc(C(=O)OCOC(=O)C(C)(C)C)c2n1Cc1ccc(-c2ccccc2-c2nn[nH]n2)cc1"
  answer.label: "satisfied"
- molecule: "CCCCc1nc2cccc(C(=O)OC(C)OC(=O)OCC)c2n1Cc1ccc(-c2ccccc2-c2nn[nH]n2)cc1 (centres undefined)"
  answer.label: "satisfied"
- molecule: "CCOc1nc2cccc(C(=O)OCc3oc(=O)oc3C)c2n1Cc1ccc(-c2ccccc2-c2nn[nH]n2)cc1"
  answer.label: "satisfied"
- molecule: "CCOc1nc2cccc(C(=O)OC(C)OC(=O)OC3CCCCC3)c2n1Cc1ccc(-c2ccccc2-c2nn[nH]n2)cc1 (centres undefined)"
  answer.label: "not satisfied"
- molecule: "CCOc1nc2cccc(C(=O)OC(C)OC(=O)OC3CCC3)c2n1Cc1ccc(-c2ccccc2-c2nn[nH]n2)cc1 (centres undefined)"
  answer.label: "not satisfied"
- molecule: "CCCCc1nc2cccc(C(=O)OCc3oc(=O)oc3C)c2n1Cc1ccc(-c2ccccc2-c2nnn(Cc3oc(=O)oc3C)n2)cc1.CCCCc1nc2cccc(C(=O)OCc3oc(=O)oc3C)c2n1Cc1ccc(-c2ccccc2-c2nnnn2Cc2oc(=O)oc2C)cc1"
  answer.label: "not satisfied"
- molecule: "CCOc1nc2cccc(C(=O)OC(C)OC(C)=O)c2n1Cc1ccc(-c2ccccc2-c2nn[nH]n2)cc1 (centres undefined)"
  answer.label: "satisfied"
- molecule: "CCCCc1nc2cccc(C(=O)OC(C)OC(=O)OC3CCCCC3)c2n1Cc1ccc(-c2ccccc2-c2nn[nH]n2)cc1 (centres undefined)"
  answer.label: "satisfied"
- molecule: "CCOc1nc2cccc(C(=O)OCOC(=O)C3CCCCC3)c2n1Cc1ccc(-c2ccccc2-c2nn[nH]n2)cc1"
  answer.label: "not satisfied"
- molecule: "CCOc1nc2cccc(C(=O)OC(C)OC(=O)OC(CC)CC)c2n1Cc1ccc(-c2ccccc2-c2nn[nH]n2)cc1 (centres undefined)"
  answer.label: "not satisfied"
- molecule: "CCOC(=O)OC(C)OC(=O)c1cccc2nc(OCC)n(Cc3ccc(-c4ccccc4-c4nn[nH]n4)cc3)c12 (centres undefined)"
  answer.label: "satisfied"
